Recorded pKi by entry
biological target: human cathepsin K (CatK) (Homo sapiens (Human)); experiment: CatK functional enzyme assay; conditions: recombinant human CatK, substrate Z-FR-AMC 40 μM, pH 5.5; Ki by Cheng Prusoff equation; read-out: hCatK, Ki
Sequence (P43235 115-329): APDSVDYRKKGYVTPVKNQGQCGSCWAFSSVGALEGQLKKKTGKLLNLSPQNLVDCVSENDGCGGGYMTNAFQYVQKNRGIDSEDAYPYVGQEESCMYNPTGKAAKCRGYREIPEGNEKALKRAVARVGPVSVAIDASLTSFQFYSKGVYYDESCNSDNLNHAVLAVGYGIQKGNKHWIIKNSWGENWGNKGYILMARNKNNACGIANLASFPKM
pKi: −log10 of the molar value.
outcome_measure: pKi

1) CCc1cnnc(-c2ccc(C(=O)N[C@H](C(=O)N3C[C@H](Cl)[C@H]4OCC(=O)[C@H]43)C3CCCCC3)s2)c1 [Example 73]; 7.82
2) O=C(N[C@H](C(=O)N1C[C@H](Cl)[C@H]2OCC(=O)[C@H]21)C1CCCCC1)c1ncc(-c2ccnnc2)s1 [Example 18]; 7.51
3) Cc1ncc(-c2ccc(C(=O)N[C@H](C(=O)N3C[C@H](Cl)[C@H]4OCC(=O)[C@H]43)C3CCCCC3)s2)c(C)n1 [Example 81]; 7.96

----------
test: Caco 2 permeability assay; type: in vitro ADME, human; details: human; Caco-2 monolayer, apical to basolateral, 10 μM, 120 min, HBSS pH 7.4; read-out: Peff a − b
outcome_measure: Papp A→B at 120 min, 10 μM (×10⁻⁶ cm/s)

1) O=C(N[C@H](C(=O)N1C[C@H](Cl)[C@H]2OCC(=O)[C@H]21)C1CCCCC1)c1ccc(-c2ccncn2)s1; 5.37
2) O=C(N[C@H](C(=O)N1C[C@H](Cl)[C@H]2OCC(=O)[C@H]21)C1CCCCC1)c1ccc(-c2ccnnc2)s1; 1.67
3) O=C(N[C@H](C(=O)N1C[C@H](Cl)[C@H]2OCC(=O)[C@H]21)C1CCCCC1)c1ccc(-c2cncnc2)s1; 4.13
4) O=C(N[C@H](C(=O)N1C[C@H](Cl)[C@H]2OCC(=O)[C@H]21)C1CCCCC1)c1cccc(-c2cn[nH]c2)c1 [Example C1, reference compound]; 0.53

----------
molecular target: human cathepsin S (CatS) (Homo sapiens (Human), UniProt P25774); test: CatS functional enzyme assay; type: biochemical; conditions: ratio Ki(hCatS)/Ki(hCatK)
Sequence (P25774 115-331): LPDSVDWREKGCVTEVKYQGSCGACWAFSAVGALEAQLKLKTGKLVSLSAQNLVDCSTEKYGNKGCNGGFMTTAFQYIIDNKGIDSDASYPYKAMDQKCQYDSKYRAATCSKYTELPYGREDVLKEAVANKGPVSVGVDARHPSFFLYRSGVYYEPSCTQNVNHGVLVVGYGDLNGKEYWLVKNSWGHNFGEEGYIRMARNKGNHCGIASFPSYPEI
Recorded Selectivity Ki(hCatS)/Ki(hCatK) by entry
outcome_measure: Selectivity Ki(hCatS)/Ki(hCatK)

1) Cc1ccc(-c2cnc(C(=O)N[C@H](C(=O)N3C[C@H](Cl)[C@H]4OCC(=O)[C@H]43)C3CCCCC3)s2)cn1; 25.4
2) O=C(N[C@H](C(=O)N1C[C@H](Cl)[C@H]2OCC(=O)[C@H]21)C1CCCCC1)c1cnc(-c2ccnnc2)o1; 1.9
3) O=C(N[C@H](C(=O)N1C[C@H](Cl)[C@H]2OCC(=O)[C@H]21)C1CCCCC1)c1sc(-c2cncnc2)cc1F; 8.9
4) O=C(N[C@H](C(=O)N1C[C@H](Cl)[C@H]2OCC(=O)[C@H]21)C1CCCCC1)c1ncc(-c2ccc(Cl)nc2)s1; 14.5
5) CS(=O)(=O)c1cnnc(-c2ccc(C(=O)N[C@H](C(=O)N3C[C@H](Cl)[C@H]4OCC(=O)[C@H]43)C3CCCCC3)s2)c1; 0.8
6) O=C(N[C@H](C(=O)N1C[C@H](Cl)[C@H]2OCC(=O)[C@H]21)C1CCCCC1)c1ccc(-c2ccc(C(F)(F)F)nc2)s1; 10.0

----------
biological target: human cathepsin L (CatL) (Homo sapiens (Human)); assay: CatL functional enzyme assay; type: biochemical; settings: read-out: hCatL, inhibition [%] at 31.6 μM
Sequence (P07711 114-333): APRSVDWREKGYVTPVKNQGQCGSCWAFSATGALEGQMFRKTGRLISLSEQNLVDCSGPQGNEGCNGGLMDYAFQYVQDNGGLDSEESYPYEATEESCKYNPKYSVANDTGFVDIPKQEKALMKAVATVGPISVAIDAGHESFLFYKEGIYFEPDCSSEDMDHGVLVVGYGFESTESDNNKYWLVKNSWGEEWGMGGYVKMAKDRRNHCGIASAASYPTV
Decision: inhibition at 31.6 µM >= 20% yields Yes, all other cases yield No.

1. O=C(N[C@H](C(=O)N1C[C@H](Cl)[C@H]2OCC(=O)[C@H]21)C1CCCCC1)c1ncc(-c2ccnnc2)s1 [Example 18]; No
2. O=C(N[C@H](C(=O)N1C[C@H](Cl)[C@H]2OCC(=O)[C@H]21)C1CCCCC1)c1ccc(-c2cnccn2)s1 [Example 4]; No
3. O=C(N[C@H](C(=O)N1C[C@H](Cl)[C@H]2OCC(=O)[C@H]21)C1CCCCC1)c1ncc(-c2ccncc2F)s1 [Example 50]; No
4. Cc1nc(-c2cnccn2)sc1C(=O)N[C@H](C(=O)N1C[C@H](Cl)[C@H]2OCC(=O)[C@H]21)C1CCCCC1 [Example 22]; No
5. O=C(N[C@H](C(=O)N1C[C@H](Cl)[C@H]2OCC(=O)[C@H]21)C1CCCCC1)c1ccc(-c2ncncc2F)s1 [Example 36]; No
6. O=C(N[C@H](C(=O)N1C[C@H](Cl)[C@H]2OCC(=O)[C@H]21)C1CCCCC1)c1cc(F)c(-c2ccnnc2)s1 [Example 40]; Yes
7. O=C(N[C@H](C(=O)N1C[C@H](Cl)[C@H]2OCC(=O)[C@H]21)C1CCCCC1)c1ccc(-c2ccc(Cl)nc2)s1 [Example 17]; No
8. Cc1ccc(-c2ccc(C(=O)N[C@H](C(=O)N3C[C@H](Cl)[C@H]4OCC(=O)[C@H]43)C3CCCCC3)s2)nn1 [Example 35]; Yes
9. O=C(N[C@H](C(=O)N1C[C@H](Cl)[C@H]2OCC(=O)[C@H]21)C1CCCCC1)c1ccc(-c2cncnc2)s1 [Example 5]; Yes
10. O=C(N[C@H](C(=O)N1C[C@H](Cl)[C@H]2OCC(=O)[C@H]21)C1CCCCC1)c1ccc(-c2ccc(F)nn2)s1 [Example 38]; Yes
11. O=C(N[C@H](C(=O)N1C[C@H](Cl)[C@H]2OCC(=O)[C@H]21)C1CCCCC1)c1ncc(-c2ccc(C3CC3)nc2)s1 [Example 64]; No
12. O=C(N[C@H](C(=O)N1C[C@H](Cl)[C@H]2OCC(=O)[C@H]21)C1CCCCC1)c1ncc(-c2cnc(C3CC3)nc2)s1 [Example 57]; Yes
